The values you see were collected from ChEMBL document CHEMBL1781902.

# Test system: MCF7
# procedure.text: Antiproliferative activity against human MCF7 cells after 48 hrs by MTT assay
# Assay type: functional
# particulars: MCF7, 48 h

| compound | reading.unit | GI50 |
| --- | --- | --- |
| Cc1n[nH]c2c1C(c1cc(Br)cc(Br)c1)C1=C(COC1=O)N2 (racemic) | nM | 75 |
| COc1cc(C2C3=C(COC3=O)Nc3cc4c(cc32)CCCC4)cc(OC)c1OC (racemic) | nM | 19 |
| O=C1OCC2=C1C(c1cncc(Br)c1)c1ccc3ccc(O)cc3c1N2 (racemic) | nM | 3 |
| O=C1OCC2=C1C(c1cncc(Br)c1)c1cn[nH]c1N2 (racemic) | nM | 15 |
| O=C1OCC2=C1C(c1cc(Br)cc(Br)c1)c1ccc3ccccc3c1N2 (racemic) | nM | 14 |
| COc1cc(C2C3=C(COC3=O)Nc3c2ccc2c(O)cccc32)cc(OC)c1OC (racemic) | nM | 3 |
| Cc1n[nH]c2c1C(c1cccc(Br)c1)C1=C(COC1=O)N2 (racemic) | nM | 4000 |
| O=C1OCC2=C1C(c1cc(Br)cc(Br)c1)c1ccc3ccc(O)cc3c1N2 (racemic) | nM | 3 |
| COc1cc(Br)cc(C2C3=C(COC3=O)Nc3[nH]nc(C)c32)c1O (racemic) | nM | 100 |
| O=C1OCC2=C1C(c1cc(Br)cs1)c1ccc3ccccc3c1N2 (racemic) | nM | 3 |
| O=C1OCC2=C1C(c1cc(Br)cc(Br)c1)c1cc3c(cc1N2)CCCC3 (racemic) | nM | 70 |
| O=C1OCC2=C1C(c1cc(Br)ccc1O)c1cn[nH]c1N2 (racemic) | nM | 25 |
| O=C1OCC2=C1C(c1cc(Br)cc(Br)c1)c1c(ccc3ccccc13)N2 (racemic) | nM | 201 |
| COc1cc(C2C3=C(COC3=O)Nc3c2ccc2[nH]ccc32)cc(OC)c1OC (racemic) | nM | 22 |
| Cc1n[nH]c2c1C(c1cncc(Br)c1)C1=C(COC1=O)N2 (racemic) | nM | 800 |
| COc1cc(C2C3=C(COC3=O)Nc3[nH]nc(C)c32)cc(OC)c1OC (racemic) | nM | 5000 |
| O=C1OCC2=C1C(c1cncc(Br)c1)c1ccc3ccccc3c1N2 (racemic) | nM | 13 |
| O=C1OCC2=C1C(c1cc(Br)cc(Br)c1)c1ccc3[nH]ccc3c1N2 (racemic) | nM | 21 |
| COc1cc(C2C3=C(COC3=O)Nc3c2ccc2ccccc32)cc(OC)c1OC (racemic) | nM | 3 |
